Data provenance: patent US9708306B2

- Tested on: normal rats
- Assay notes: Effect on blood pressure of normal rats by single oral administration
- Assay type: in vivo, Wistar rats
- Measurement parameters: Rattus norvegicus, po, 8 h; 1.0 mg/kg p.o., single, normal rats; read-out: blood pressure reduction at 8 h after the administration
Property: inhibition in vivo at 1 mg/kg (%)
# output: bare number, implied unit %

Data request: Entry CCOc1nc2cccc(C(=O)OCOC(=O)OCc3ccno3)c2n1Cc1ccc(-c2ccccc2-c2noc(=O)[nH]2)cc1 : reported inhibition in vivo at 1 mg/kg = ?
Data returned: 5.2

Data request: Note, next up: CCOc1nc2cccc(C(=O)OCc3no[n+]([O-])c3CO[N+](=O)[O-])c2n1Cc1ccc(-c2ccccc2-c2noc(=O)[nH]2)cc1
Data returned: 5.1

Data request: Note, next up: CCOc1nc2cccc(C(=O)Oc3ccc(OCc4c(-c5ccccc5)no[n+]4[O-])cc3)c2n1Cc1ccc(-c2ccccc2-c2noc(=O)[nH]2)cc1
Data returned: 4.6

---

- Test system: normal rats
- Assay notes: Effect on blood pressure of normal rats by single oral administration
- Type: in vivo, Wistar rats
- Measurement parameters: Rattus norvegicus, po; 2.0 mg/kg p.o., single, normal rats; read-out: variations on heart rate
Property: change in vivo at 2 mg/kg (%)
# output: bare number, implied unit %

Solved entries (count: 4):
{"columns": ["Compound", "Target entity", "change in vivo at 2 mg/kg [%]"],
 "data": [
  ["CCOc1nc2cccc(C(=O)OCc3c(-c4ccccc4)no[n+]3[O-])c2n1Cc1ccc(-c2ccccc2-c2noc(=O)[nH]2)cc1", "normal rats", -8],
  ["CCOc1nc2cccc(C(=O)OCc3no[n+]([O-])c3C#N)c2n1Cc1ccc(-c2ccccc2-c2noc(=O)[nH]2)cc1", "normal rats", -5],
  ["CCOc1nc2cccc(C(=O)OCCO[N+](=O)[O-])c2n1Cc1ccc(-c2ccccc2-c2noc(=O)[nH]2)cc1", "normal rats", 3],
  ["CCOc1nc2cccc(C(=O)OC3CCc4c3no[n+]4[O-])c2n1Cc1ccc(-c2ccccc2-c2noc(=O)[nH]2)cc1 (stereo not shown)", "normal rats", 6]
]}

Next up:
Data request: For normal rats, provide change in vivo at 2 mg/kg of CCOc1nc2cccc(C(=O)OCOC(=O)OCc3cn(C)cn3)c2n1Cc1ccc(-c2ccccc2-c2noc(=O)[nH]2)cc1 please.
Data returned: -8

---

- System: renovascular hypertensive rats
- Assay notes: Effect on reducing blood pressure of renovascular hypertensive rats by single oral administration
- Type: in vivo, Wistar rats
- Measurement parameters: Rattus norvegicus; 0.5 mg/kg, single oral administration, two-kidney one-clip RHR, measured 1-10 h; read-out: Maximum blood pressure reduction
Property: inhibition in vivo at 0.5 mg/kg (%)
# output: bare number, implied unit %

Solved entries (count: 3):
{"columns": ["Compound", "inhibition in vivo at 0.5 mg/kg (%)"],
 "data": [
  ["CCOc1nc2cccc(C(=O)OCCOC(C)=O)c2n1Cc1ccc(-c2ccccc2-c2noc(=O)[nH]2)cc1", 7],
  ["CCOc1nc2cccc(C(=O)OCCCCO[N+](=O)[O-])c2n1Cc1ccc(-c2ccccc2-c2noc(=O)[nH]2)cc1", 17],
  ["CCOc1nc2cccc(C(=O)OCOC(=O)OCc3cn(C)cn3)c2n1Cc1ccc(-c2ccccc2-c2noc(=O)[nH]2)cc1", 18]
]}

Data request: For renovascular hypertensive rats, provide inhibition in vivo at 0.5 mg/kg of CCOc1nc2cccc(C(=O)OC(C)OC(=O)OCc3no[n+]([O-])c3C)c2n1Cc1ccc(-c2ccccc2-c2noc(=O)[nH]2)cc1 (stereo not shown) please.
Data returned: 15

Data request: Note, next up: CCOc1nc2cccc(C(=O)OC(C)OC(=O)OCc3ccn(C)c3)c2n1Cc1ccc(-c2ccccc2-c2noc(=O)[nH]2)cc1 (stereo not shown)
Data returned: 19

Data request: Note, next up: CCOc1nc2cccc(C(=O)ONC(=N)Nc3ccccc3)c2n1Cc1ccc(-c2ccccc2-c2noc(=O)[nH]2)cc1
Data returned: 17

Data request: Note, next up: CCOc1nc2cccc(C(=O)OCOC(=O)C(C)(C)C)c2n1Cc1ccc(-c2ccccc2-c2noc(=O)[nH]2)cc1
Data returned: 16
